# assayed.target: Caspase-5 (Homo sapiens)
# Construct: mixing the compounds with the respective active caspases; purchased BioVision K155-100
# Sequence (P51878 137-327 limits assumed): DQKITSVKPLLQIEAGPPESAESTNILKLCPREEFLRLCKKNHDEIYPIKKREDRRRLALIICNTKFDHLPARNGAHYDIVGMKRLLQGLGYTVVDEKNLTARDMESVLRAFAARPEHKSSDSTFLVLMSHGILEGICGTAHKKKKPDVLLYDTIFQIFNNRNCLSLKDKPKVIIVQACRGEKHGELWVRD
# Sequence (P51878 347-434 limits assumed): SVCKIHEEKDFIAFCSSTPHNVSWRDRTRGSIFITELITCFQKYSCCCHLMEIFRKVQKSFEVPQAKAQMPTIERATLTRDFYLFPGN
# assay.info: Caspase-5 inhibitor screening assay (BioVision kit, WEHD-AFC)
# Format: biochemical
# run.parameters: read-out: % Inhibition at 10 uM Casp5
endpoint: inhibition at 10 µM (%)

A. CC(C)[C@H](NC(=O)[C@@H](NC(=O)[C@H](CC(=O)O)NC(=O)OCc1ccccc1)c1ccccc1)C(=O)N[C@H](/C=C/S(C)(=O)=O)CCC(=O)O [Compound 84, Z-Asp-Phg-Val-Glu methyl vinyl sulfone]
B. CS(=O)(=O)/C=C/[C@H](CC(=O)O)NC(=O)C1CCCN1C(=O)[C@@H](NC(=O)[C@H](CC(=O)O)NC(=O)OCc1ccccc1)C1CC1 (stereo in doubt) [Compound 28]
C. CC(C)(C)[C@H](NC(=O)c1ccc2ccccc2n1)C(=O)N1CCC[C@@H]1C(=O)N[C@H](/C=C/S(C)(=O)=O)CC(=O)O [Compound 6]
QUERY: Exam item: list the entries in increasing order of inhibition at 10 µM. In your reply, arrange the labels in the requested order.
RESULT: A, B, C

----------
# assayed.target: Caspase-8 (Homo sapiens)
# Construct: mixing the compounds with the respective active caspases; purchased BioVision K158-100
# Sequence (Q14790 217-374 limits assumed): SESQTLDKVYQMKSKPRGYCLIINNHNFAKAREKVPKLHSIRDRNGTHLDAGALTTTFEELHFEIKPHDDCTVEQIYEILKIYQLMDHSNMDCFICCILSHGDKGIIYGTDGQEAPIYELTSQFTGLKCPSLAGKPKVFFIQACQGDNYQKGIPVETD
# Sequence (Q14790 385-479 limits assumed): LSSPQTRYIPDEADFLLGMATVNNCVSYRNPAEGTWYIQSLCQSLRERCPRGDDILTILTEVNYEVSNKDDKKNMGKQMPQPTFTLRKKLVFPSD
# assay.info: Caspase-8 inhibitor screening assay (BioVision kit, IETD-AFC)
# Format: biochemical
# run.parameters: 10 uM; read-out: % Inhibition at 10 uM Casp8
endpoint: inhibition at 10 µM (%)

Consider the worked cases shown below.
compound	unit.of.measure	inhibition at 10 µM
CC(C)(C)[C@H](NC(=O)c1ccc(N)c(Cl)c1)C(=O)N1CCCC1C(=O)N[C@H](/C=C/S(C)(=O)=O)CC(=O)O (stereo in doubt)	%	46
CCOC(=O)/C=C/[C@H](CC(=O)O)NC(=O)[C@@H](NC(=O)[C@@H](NC(=O)[C@H](CC(=O)O)NC(=O)OCc1ccccc1)c1ccccc1)C(C)C	%	77
CC(C)(C)[C@H](NC(=O)c1ccc2ncccc2n1)C(=O)N1CCCC1C(=O)N[C@H](/C=C/S(C)(=O)=O)CC(=O)O (stereo in doubt)	%	8
CC(C)[C@H](NC(=O)[C@@H](NC(=O)[C@H](CC(=O)O)NC(=O)OCc1ccccc1)c1ccccc1)C(=O)N[C@H](/C=C/S(C)(=O)=O)CCC(=O)O	%	9
CS(=O)(=O)/C=C/[C@H](CC(=O)O)NC(=O)[C@H]1CCC(=O)N1	%	0

A. CC(C)[C@H](NC(=O)[C@H](CCC(=O)O)NC(=O)[C@H](Cc1c[nH]c2ccccc12)NC(=O)OCc1ccccc1)C(=O)N[C@H](/C=C/S(C)(=O)=O)CC(=O)O
B. CC(C)(C)[C@H](NC(=O)c1ccc2ccccc2n1)C(=O)N1CC[C@@H]1C(=O)N[C@H](/C=C/S(C)(=O)=O)CC(=O)O
QUERY: When their inhibition at 10 µM values are compared, which is larger, A or B ? Return value: the label identifying the chosen record.
RESULT: A

1. CCOC(=O)/C=C/[C@H](CC(=O)O)NC(=O)[C@H]1CCCN1C(=O)[C@@H](NC(=O)c1ccc2ccccc2n1)C(C)(C)C
2. CC(C)(C)[C@H](NC(=O)c1ccc2ccccc2n1)C(=O)N1CCC[C@@H]1C(=O)N[C@H](/C=C/S(C)(=O)=O)CC(=O)O
QUERY: When their inhibition at 10 µM values are compared, which is larger, 1 or 2 ? Return value: the label identifying the chosen record.
RESULT: 1

----------
# assayed.target: Caspase-4 (Homo sapiens, UniProt P49662)
# Construct: mixing the compounds with the respective active caspases; purchased BioVision K154-100
# Sequence (P49662 81-270 limits assumed): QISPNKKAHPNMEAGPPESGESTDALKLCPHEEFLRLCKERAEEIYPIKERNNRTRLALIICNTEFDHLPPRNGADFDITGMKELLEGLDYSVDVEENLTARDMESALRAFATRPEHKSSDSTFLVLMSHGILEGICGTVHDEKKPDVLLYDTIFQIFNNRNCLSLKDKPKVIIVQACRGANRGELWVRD
# Sequence (P49662 290-377 limits assumed): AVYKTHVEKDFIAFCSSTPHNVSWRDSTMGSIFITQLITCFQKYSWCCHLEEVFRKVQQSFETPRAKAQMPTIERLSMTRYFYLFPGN
# assay.info: Caspase-4 inhibitor screening assay (BioVision kit, LEVD-AFC)
# Assay type: biochemical
# run.parameters: read-out: IC50 Casp4
endpoint: IC50 (µM)

1. CCOC(=O)/C=C/[C@H](CC(=O)O)NC(=O)[C@@H](NC(=O)[C@H](CCC(=O)O)NC(=O)[C@@H](NC(=O)OCc1ccccc1)C(C)C)c1ccccc1
2. CC(C)(C)[C@H](NC(=O)c1ccc2ncccc2c1)C(=O)N1CCCC1C(=O)N[C@H](/C=C/S(C)(=O)=O)CC(=O)O (stereo in doubt)
3. CC(C)(C)[C@@H](NC(=O)[C@H](CC(=O)O)NC(=O)OCc1ccccc1)C(=O)N1CC[C@@H]1C(=O)N[C@H](/C=C/S(C)(=O)=O)CC(=O)O
QUERY: Could you arrange the 3 molecules above by IC50, starting with the largest number? In your reply, arrange the labels in the requested order.
RESULT: 3, 2, 1

----------
# assayed.target: Caspase-4 (Homo sapiens)
# Construct: mixing the compounds with the respective active caspases; purchased BioVision K154-100
# assay.info: Caspase-4 inhibitor screening assay (BioVision kit, LEVD-AFC)
# Assay type: biochemical
# run.parameters: read-out: IC50 Casp4
endpoint: IC50 (nM)

Consider the worked cases shown below.
compound	unit.of.measure	IC50
CCOC(=O)/C=C/[C@H](CC(=O)O)NC(=O)[C@H]1CCCN1C(=O)[C@@H](NC(=O)c1ccc(N)c(Cl)c1)C(C)(C)C [Compound 116]	nM	30
CC(C)[C@H](NC(=O)[C@H](CCC(=O)O)NC(=O)[C@H](Cc1c[nH]c2ccccc12)NC(=O)OCc1ccccc1)C(=O)N[C@H](/C=C/S(C)(=O)=O)CC(=O)O [Compound 40, Z-Trp-Glu-Val-Asp-methyl vinyl sulfone]	nM	180
CCC(C)[C@H](NC(=O)[C@H](CCC(=O)O)NC(=O)[C@@H](NC(=O)OCc1ccccc1)C(C)C)C(=O)N[C@H](/C=C(\Cl)S(C)(=O)=O)CC(=O)O (stereo partly drawn) [Compound 123]	nM	1800

P. CCOC(=O)/C=C/[C@H](CC(=O)O)NC(=O)[C@@H](NC(=O)[C@H](CCC(=O)O)NC(=O)[C@@H](NC(=O)OCc1ccccc1)C(C)C)C(C)CC (stereo partly drawn) [Compound 124, Z-Val-Glu-Ile-Asp-Ethyl Vinyl ester]
Q. CCOC(=O)/C=C/[C@H](CC(=O)O)NC(=O)[C@H]1CCCN1C(=O)[C@@H](NC(=O)c1ccc2ccccc2n1)C(C)(C)C [Compound 118]
QUERY: Could you tell me which of P and Q has the lower IC50 reading? Return value: the label identifying the chosen record.
RESULT: Q

----------
# assayed.target: Caspase-9 (Homo sapiens)
# Construct: purchased BioVision K159-100
# Sequence (P55211 1-315 limits assumed): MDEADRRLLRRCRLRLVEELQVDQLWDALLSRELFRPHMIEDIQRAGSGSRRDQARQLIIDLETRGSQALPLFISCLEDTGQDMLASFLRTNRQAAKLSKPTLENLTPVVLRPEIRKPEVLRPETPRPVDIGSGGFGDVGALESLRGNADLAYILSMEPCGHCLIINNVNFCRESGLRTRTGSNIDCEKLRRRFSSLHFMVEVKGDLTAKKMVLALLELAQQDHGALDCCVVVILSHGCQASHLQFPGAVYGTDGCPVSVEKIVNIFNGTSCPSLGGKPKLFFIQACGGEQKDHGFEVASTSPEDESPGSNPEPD
# Sequence (P55211 331-416 limits assumed): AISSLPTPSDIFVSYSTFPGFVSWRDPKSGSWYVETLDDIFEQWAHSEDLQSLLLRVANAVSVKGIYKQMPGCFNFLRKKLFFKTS
# assay.info: Caspase-9 inhibitor screening assay (BioVision kit, LEHD-AFC)
# Format: biochemical
# run.parameters: read-out: IC50 Casp9
endpoint: IC50 (µM)

compound	numeric.result
CCOC(=O)/C=C/[C@H](CC(=O)O)NC(=O)[C@H]1CCCN1C(=O)[C@@H](NC(=O)c1ccc2ccccc2n1)C(C)(C)C	8.9

1. CCOC(=O)/C=C/[C@H](CC(=O)O)NC(=O)[C@@H](NC(=O)[C@H](CCC(=O)O)NC(=O)[C@@H](NC(=O)OCc1ccccc1)C(C)C)C(C)CC (stereo partly shown)
2. CC(C)(C)[C@H](NC(=O)c1ccc2ncccc2n1)C(=O)N1CCCC1C(=O)N[C@H](/C=C/S(C)(=O)=O)CC(=O)O (stereo in doubt)
QUERY: Could you tell me which of 1 and 2 has the lower IC50 reading? Return value: the label identifying the chosen record.
RESULT: 1
(1: 7.5 µM, 2: 47.3 µM)

----------
# assayed.target: Caspase-1 (Homo sapiens)
# Construct: mixing the compounds with the respective active caspases; purchased BioVision K151-100
# Sequence (P29466 120-297 limits assumed): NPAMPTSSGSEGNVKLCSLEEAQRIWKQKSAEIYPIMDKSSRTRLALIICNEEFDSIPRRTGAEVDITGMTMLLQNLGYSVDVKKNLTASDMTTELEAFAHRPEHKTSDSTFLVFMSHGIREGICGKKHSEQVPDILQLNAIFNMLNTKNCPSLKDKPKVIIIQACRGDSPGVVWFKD
# Sequence (P29466 317-404 limits assumed): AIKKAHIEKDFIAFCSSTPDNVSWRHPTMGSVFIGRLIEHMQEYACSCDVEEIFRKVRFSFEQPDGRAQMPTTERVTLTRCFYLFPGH
# assay.info: Caspase-1 inhibitor screening assay (BioVision kit, YVAD-AFC)
# Type: biochemical
# run.parameters: read-out: % Inhibition at 100 uM Casp1
endpoint: inhibition at 100 µM (%)

compound	inhibition at 100 µM (%)
CC(C)(C)[C@@H](NC(=O)[C@H](CC(=O)O)NC(=O)OCc1ccccc1)C(=O)N1CC[C@@H]1C(=O)N[C@H](/C=C/S(C)(=O)=O)CC(=O)O [Compound 32]	86
CC(C)(C)[C@H](NC(=O)c1ccc2ccccc2n1)C(=O)N1CCC[C@@H]1C(=O)N[C@H](/C=C/S(C)(=O)=O)CC(=O)O [Compound 6]	100
CC(C)[C@H](NC(=O)[C@H](CCC(=O)O)NC(=O)[C@H](Cc1c[nH]c2ccccc12)NC(=O)OCc1ccccc1)C(=O)N[C@H](/C=C/S(C)(=O)=O)CC(=O)O [Compound 40, Z-Trp-Glu-Val-Asp-methyl vinyl sulfone]	100
CCOC(=O)/C=C/[C@H](CC(=O)O)NC(=O)[C@@H](NC(=O)[C@@H](NC(=O)[C@H](CC(=O)O)NC(=O)OCc1ccccc1)c1ccccc1)C(C)C [Compound 105, Z-Asp-Phg-Val-Asp Ethyl Vinyl Ester]	96
CC(C)[C@H](NC(=O)[C@@H](N)Cc1ccc(O)cc1)C(=O)N[C@@H](C)C(=O)N[C@H](/C=C/S(C)(=O)=O)CC(=O)O [Compound 42, Tyr-Val-Ala-Asp methyl vinyl sulfone]	72

I. CC(C)(C)[C@H](NC(=O)c1ccc(N)c(Cl)c1)C(=O)N1CCCC1C(=O)N[C@H](/C=C/S(C)(=O)=O)CC(=O)O (stereo in doubt) [Compound 14]
II. CC(C)[C@H](NC(=O)OCc1ccccc1)C(=O)N[C@H](/C=C(\Cl)S(C)(=O)=O)CC(=O)O [Compound 2]
QUERY: Could you tell me which of I and II has the lower inhibition at 100 µM reading? Return value: the label identifying the chosen record.
RESULT: II
(II: 5%, I: 100%)
